All values here come from ChEMBL document CHEMBL3885881.

# Species: Rattus norvegicus
# protocol details: DrugMatrix - Regimen: Daily Repeat
# Type: toxicity, organism-based, Sprague-Dawley
# Design: regimen Daily Repeat, gender Male, age 6-8 weeks
# condition description: in vivo, po, 0 mg/kg, 72 h, tissue Blood, route oral GAVAGE, dose level Control, time 3 day, vehicle .5 % CMC
Here, each record is paired with measured NEUTROPHIL data.
quantity measured: NEUTROPHIL

INSERT INTO assay_data (compound, quantity_measured, test_value) VALUES
  ('COC(=O)c1ccc(O)cc1', 'NEUTROPHIL', '11.33%'),
  ('Brc1ccccc1', 'NEUTROPHIL', '12.83%'),
  ('COc1c(C)c2c(c(O)c1C/C=C(\C)CCC(=O)OCCN1CCOCC1)C(=O)OC2 [MYCOPHENOLATE MOFETIL]', 'NEUTROPHIL', '8.83%'),
  ('CN1CCC[C@@H]1CCO[C@](C)(c1ccccc1)c1ccc(Cl)cc1', 'NEUTROPHIL', '8.83%'),
  ('O=c1[nH]cc(F)c(=O)[nH]1', 'NEUTROPHIL', '11%'),
  ('CC1(C)[C@H]2CC[C@]1(C)C(=O)C2 [(-)-CAMPHOR]', 'NEUTROPHIL', '9.33%');

----------
# Species: Rattus norvegicus
# protocol details: DrugMatrix - Regimen: Daily Repeat
# Format: toxicity, organism-based, Sprague-Dawley
# Design: regimen Daily Repeat, gender Male, age 6-8 weeks
# condition description: in vivo, po, 0 mg/kg, 120 h, tissue Plasma, route oral GAVAGE, dose level Control, time 5 day, vehicle .5 % CMC
Here, each record is paired with measured TOTAL PROTEIN data.
quantity measured: TOTAL PROTEIN (G/DL)

INSERT INTO results (compound, quantity_measured, value_units, test_value) VALUES
  ('C[C@]12CCC(=O)C=C1CC[C@@H]1[C@@H]2C(=O)C[C@@]2(C)[C@H]1CC[C@]2(O)C(=O)CO [CORTISONE]', 'TOTAL PROTEIN', 'G/DL', 6.77),
  ('O=c1[nH]cc(F)c(=O)[nH]1 [FLUOROURACIL]', 'TOTAL PROTEIN', 'G/DL', 6.08),
  ('CC(/C=C1\SC(=S)N(CC(=O)O)C1=O)=C\c1ccccc1', 'TOTAL PROTEIN', 'G/DL', 6.02),
  ('CCc1ccc(C(=O)C(C)CN2CCCCC2)cc1 (stereo unspecified) [EPERISONE]', 'TOTAL PROTEIN', 'G/DL', 6.1),
  ('Brc1ccccc1 [BROMOBENZENE]', 'TOTAL PROTEIN', 'G/DL', 6.07),
  ('CCC[C@@H]1C[C@@H](C(=O)N[C@@H]([C@H]2O[C@H](SC)[C@H](O)[C@@H](O)[C@H]2O)[C@@H](C)O)N(C)C1 [LINCOMYCIN]', 'TOTAL PROTEIN', 'G/DL', 6.1);

----------
# Species on record: Rattus norvegicus
# protocol details: DrugMatrix - Regimen: Daily Repeat
# Type: toxicity, organism-based, Sprague-Dawley
# Design: regimen Daily Repeat, gender Male, age 6-8 weeks
# condition description: in vivo, po, 0 mg/kg, 72 h, tissue Plasma, route oral GAVAGE, dose level Control, time 3 day, […]
quantity measured: ALANINE AMINOTRANSFERASE (u/L)

INSERT INTO measurements (molecule, quantity_measured, test_value) VALUES
  ('c1ccc2[nH]c(-c3cscn3)nc2c1', 'ALANINE AMINOTRANSFERASE', 72),
  ('C=CCN', 'ALANINE AMINOTRANSFERASE', 46.67),
  ('CC1=C(/C=C/C(C)=C/C=C/C(C)=C\C(=O)O)C(C)(C)CCC1', 'ALANINE AMINOTRANSFERASE', 77.67),
  ('CCCC[C@@H](CC)COC(=O)c1ccccc1C(=O)OC[C@@H](CC)CCCC [BIS(2-ETHYLHEXYL)PHTHALATE]', 'ALANINE AMINOTRANSFERASE', 72),
  ('CCCCCCCCCc1ccc(O)cc1', 'ALANINE AMINOTRANSFERASE', 67.17),
  ('CSc1ccc2c(c1)N(CCC1CCCCN1C)c1ccccc1S2 (centres undefined)', 'ALANINE AMINOTRANSFERASE', 58.67),
  ('COCc1c(C(C)C)nc(C(C)C)c(/C=C/[C@@H](O)C[C@@H](O)CC(=O)O)c1-c1ccc(F)cc1', 'ALANINE AMINOTRANSFERASE', 67.17),
  ('CC(=O)[C@H]1CC[C@H]2[C@@H]3CCC4=CC(=O)CC[C@]4(C)[C@H]3CC[C@]12C', 'ALANINE AMINOTRANSFERASE', 72.83),
  ('Oc1c(Cl)cc(Cl)cc1Sc1cc(Cl)cc(Cl)c1O', 'ALANINE AMINOTRANSFERASE', 76.67);

----------
Here, each record is paired with measured CHLORIDE data.
# Species: Rattus norvegicus
# protocol details: DrugMatrix - Regimen: Daily Repeat
# Format: toxicity, organism-based, Sprague-Dawley
# Design: regimen Daily Repeat, gender Male, age 6-8 weeks
# condition description: in vivo, po, 0 mg/kg, 120 h, tissue Plasma, route oral GAVAGE, dose level Control, time 5 day, vehicle .5 % CMC
quantity measured: CHLORIDE (MEQ/L)

INSERT INTO assay_data (compound, quantity_measured, test_value) VALUES
  ('COc1c(C)c2c(c(O)c1C/C=C(\C)CCC(=O)OCCN1CCOCC1)C(=O)OC2 [MYCOPHENOLATE MOFETIL]', 'CHLORIDE', 101.5),
  ('CC[C@H]1OC(=O)[C@H](C)[C@@H](O[C@H]2C[C@@](C)(OC)[C@@H](O)[C@H](C)O2)[C@H](C)[C@@H](O[C@@H]2O[C@H](C)C[C@H](N(C)C)[C@H]2O)[C@](C)(O)C[C@@H](C)/C(=N\OCOCCOC)[C@H](C)[C@@H](O)[C@]1(C)O', 'CHLORIDE', 103.17),
  ('CC1(C)[C@H]2CC[C@]1(C)C(=O)C2 [(-)-CAMPHOR]', 'CHLORIDE', 101),
  ('O=c1cc(-c2ccccc2)oc2c1ccc1ccccc12', 'CHLORIDE', 109.4),
  ('CC(/C=C1\SC(=S)N(CC(=O)O)C1=O)=C\c1ccccc1', 'CHLORIDE', 101.5),
  ('CCc1ccc(C(=O)C(C)CN2CCCCC2)cc1 (stereo unspecified)', 'CHLORIDE', 103.5);

----------
# Organism: Rattus norvegicus
# protocol details: DrugMatrix - Regimen: Daily Repeat
# Assay type: toxicity, organism-based, Sprague-Dawley
# Parameters: regimen Daily Repeat, gender Male, age 6-8 weeks
# condition description: in vivo, po, 0 mg/kg, 120 h, tissue Plasma, route oral GAVAGE, dose level Control, time 5 day, vehicle 100 % WATER
Here, each record is paired with measured CHLORIDE data.
quantity measured: CHLORIDE (MEQ/L)

INSERT INTO assay_data (molecule, test_value) VALUES
  ('Nc1ccc(S(=O)(=O)Nc2ccnn2-c2ccccc2)cc1', 98.33),
  ('CC(CCc1ccccc1)NCC(O)c1ccc(O)c(C(N)=O)c1 (stereo not drawn)', 103.5),
  ('C[C@]12Cc3c[nH]nc3C[C@@H]1CC[C@@H]1[C@@H]2CC[C@@]2(C)[C@H]1CC[C@]2(C)O', 99.75),
  ('COc1cccc(C2(O)CCCCC2CN(C)C)c1 (stereo not drawn)', 99.75),
  ('Fc1ccc([C@@H]2CCNC[C@H]2COc2ccc3c(c2)OCO3)cc1', 99.75),
  ('CN1CCN(C(=O)OC2c3nccnc3C(=O)N2c2ccc(Cl)cn2)CC1 (stereo not drawn)', 101.5),
  ('CC1(C)S[C@@H]2[C@H](NC(=O)[C@H](N)c3ccc(O)cc3)C(=O)N2[C@H]1C(=O)O', 99.33),
  ('CN1CCC[C@H]1c1cccnc1', 101.83);

----------
# Species: Rattus norvegicus
# protocol details: DrugMatrix - Regimen: Daily Repeat
# Assay type: toxicity, organism-based, Sprague-Dawley
# Set-up: regimen Daily Repeat, gender Male, age 6-8 weeks
# condition description: in vivo, po, 0 mg/kg, 72 h, tissue Plasma, route oral GAVAGE, dose level Control, time 3 day, vehicle 100 % WATER
Here, each record is paired with measured ALANINE AMINOTRANSFERASE data.
quantity measured: ALANINE AMINOTRANSFERASE (u/L)

INSERT INTO assay_data (compound, quantity_measured, value_units, test_value) VALUES
  ('CN1CCN(C(=O)OC2c3nccnc3C(=O)N2c2ccc(Cl)cn2)CC1 (stereo unspecified)', 'ALANINE AMINOTRANSFERASE', 'u/L', 48.33),
  ('Cc1cc(NS(=O)(=O)c2ccc(N)cc2)no1', 'ALANINE AMINOTRANSFERASE', 'u/L', 52.67),
  ('CN1CCC[C@H]1c1cccnc1', 'ALANINE AMINOTRANSFERASE', 'u/L', 62.17),
  ('O=C1NC(=O)C(c2ccccc2)(c2ccccc2)N1', 'ALANINE AMINOTRANSFERASE', 'u/L', 45.17),
  ('C[C@]12Cc3c[nH]nc3C[C@@H]1CC[C@@H]1[C@@H]2CC[C@@]2(C)[C@H]1CC[C@]2(C)O', 'ALANINE AMINOTRANSFERASE', 'u/L', 55.67),
  ('COc1cc2c(N3CCN(C(=O)Nc4ccc(OC(C)C)cc4)CC3)ncnc2cc1OCCCN1CCCCC1', 'ALANINE AMINOTRANSFERASE', 'u/L', 47.67);
